The reported numbers originate from PubChem BioAssay AID2060503.

Tested on: 817829-284-R-J1-PDC complex spheroids, viability
Assay: Anticancer human tumor 817829-284-R-J1-PDC patient-derived colon adenocarcinoma cell line growth inhibition [GQUAD]
Settings: second compound 0.0316 µM; first compound 10 µM; active compounds read low
Excerpt: DNA G-quadruplex Stabilizer Agents in Combinations in Complex Spheroids A high-throughput screen of multi-cell type tumor spheroids was designed to identify active combinations of DNA G-quadruplex stabilizer agents and targeted small molecules. […] Compounds. […] If the clinical Cmax for an agent had not been determined, the highest concentration tested was 10 microM. […]
Assignment: determine reported viability, T/C for the given compounds.
State the answer as a number, implicitly in %.

[ask] Any idea what its viability, T/C is? The compound is C=CCn1c(=O)c2cnc(Nc3ccc(N4CCN(C)CC4)cc3)nc2n1-c1cccc(C(C)(C)O)n1 + Cc1[nH]c2ccc(F)cc2c1-c1nc2c3cccnc3c3ncccc3c2[nH]1
[reply] 5.37

[ask] Any idea what its viability, T/C is? The compound is O=C(NO)c1cnc(N2CCN(S(=O)(=O)c3ccc4ccccc4c3)CC2)nc1 + Cc1[nH]c2ccc(F)cc2c1-c1nc2c3cccnc3c3ncccc3c2[nH]1
[reply] 0.14

[ask] Any idea what its viability, T/C is? The compound is Cc1cccc(N(C)C(=O)C2C(O)CCN2c2nc(C)cc(C(F)(F)F)c2C#N)c1 (centres undefined) + Cc1[nH]c2ccc(F)cc2c1-c1nc2c3cccnc3c3ncccc3c2[nH]1
[reply] 95.3

[ask] Any idea what its viability, T/C is? The compound is O=C(NO)c1cnc(N2CCN(S(=O)(=O)c3ccc4ccccc4c3)CC2)nc1 + Cc1cnc(CNC(=O)c2c(=O)c3ccc(N4CCCN(C)CC4)nc3n3c2sc2ccccc23)cn1
[reply] 0.07

[ask] Any idea what its viability, T/C is? The compound is CC(=O)O[C@H]1C(=O)[C@@]2(C)[C@H]([C@H](OC(=O)c3ccccc3)[C@]3(O)C[C@H](OC(=O)[C@H](O)[C@@H](NC(=O)c4ccccc4)c4ccccc4)C(C)=C1C3(C)C)[C@]1(OC(C)=O)CO[C@@H]1C[C@@H]2O + CN(C)c1ccc(Nc2c3ccc(NC(=O)CCN4CCCC4)cc3nc3cc(NC(=O)CCN4CCCC4)ccc23)cc1
[reply] 5.39

[ask] Any idea what its viability, T/C is? The compound is COc1ncnc(C2CC2)c1-c1ncc2cnn(Cc3ccc(-c4nc(C(F)(F)F)cn4C(C)C)cc3)c2n1 + CN(C)c1ccc(Nc2c3ccc(NC(=O)CCN4CCCC4)cc3nc3cc(NC(=O)CCN4CCCC4)ccc23)cc1
[reply] 115

[ask] Any idea what its viability, T/C is? The compound is Cc1cccc(N(C)C(=O)C2C(O)CCN2c2nc(C)cc(C(F)(F)F)c2C#N)c1 (centres undefined) + CN(C)c1ccc(Nc2c3ccc(NC(=O)CCN4CCCC4)cc3nc3cc(NC(=O)CCN4CCCC4)ccc23)cc1
[reply] 85.4

[ask] Any idea what its viability, T/C is? The compound is CC(C)n1c(=O)n(C)c2cnc3cc(F)c(-c4ccc(OCCCN5CCCCC5)nc4)cc3c21 + CN(C)c1ccc(Nc2c3ccc(NC(=O)CCN4CCCC4)cc3nc3cc(NC(=O)CCN4CCCC4)ccc23)cc1
[reply] 116

[ask] Any idea what its viability, T/C is? The compound is O=C(c1cc(Cc2n[nH]c(=O)c3ccccc23)ccc1F)N1CCN(C(=O)C2CC2)CC1 + Cc1cnc(CNC(=O)c2c(=O)c3ccc(N4CCCN(C)CC4)nc3n3c2sc2ccccc23)cn1
[reply] 35.6

[ask] Any idea what its viability, T/C is? The compound is COc1cccc2c1C(=O)c1c(O)c3c(c(O)c1C2=O)CC(O)(C(=O)CO)CC3OC1CC(N)C(O)C(C)O1 (centres undefined) + Cc1[nH]c2ccc(F)cc2c1-c1nc2c3cccnc3c3ncccc3c2[nH]1
[reply] 0.2

[ask] Any idea what its viability, T/C is? The compound is CC1COCCN1c1cc(C2(S(C)(=N)=O)CC2)nc(-c2ccnc3[nH]ccc23)n1 (centres undefined) + Cc1[nH]c2ccc(F)cc2c1-c1nc2c3cccnc3c3ncccc3c2[nH]1
[reply] 8.11

[ask] Any idea what its viability, T/C is? The compound is O=c1[nH]cc(F)c(=O)[nH]1 + Cc1cnc(CNC(=O)c2c(=O)c3ccc(N4CCCN(C)CC4)nc3n3c2sc2ccccc23)cn1
[reply] 33

[ask] Any idea what its viability, T/C is? The compound is COc1cccc2c1C(=O)c1c(O)c3c(c(O)c1C2=O)CC(O)(C(=O)CO)CC3OC1CC(N)C(O)C(C)O1 (centres undefined) + CN(C)c1ccc(Nc2c3ccc(NC(=O)CCN4CCCC4)cc3nc3cc(NC(=O)CCN4CCCC4)ccc23)cc1
[reply] 0.64

[ask] Any idea what its viability, T/C is? The compound is CC(=O)O[C@H]1C(=O)[C@@]2(C)[C@H]([C@H](OC(=O)c3ccccc3)[C@]3(O)C[C@H](OC(=O)[C@H](O)[C@@H](NC(=O)c4ccccc4)c4ccccc4)C(C)=C1C3(C)C)[C@]1(OC(C)=O)CO[C@@H]1C[C@@H]2O + Cc1cnc(CNC(=O)c2c(=O)c3ccc(N4CCCN(C)CC4)nc3n3c2sc2ccccc23)cn1
[reply] 7.13

[ask] Any idea what its viability, T/C is? The compound is CCCS(=O)(=O)Nc1ccc(F)c(C(=O)c2c[nH]c3ncc(-c4ccc(Cl)cc4)cc23)c1F + Cc1[nH]c2ccc(F)cc2c1-c1nc2c3cccnc3c3ncccc3c2[nH]1
[reply] 19.3

[ask] Any idea what its viability, T/C is? The compound is CC1COCCN1c1cc(C2(O)CC3CCC(C2)O3)c2cnn(-c3ccn[nH]3)c2n1 (centres undefined) + CN(C)c1ccc(Nc2c3ccc(NC(=O)CCN4CCCC4)cc3nc3cc(NC(=O)CCN4CCCC4)ccc23)cc1
[reply] 5.19

[ask] Any idea what its viability, T/C is? The compound is CCCS(=O)(=O)Nc1ccc(F)c(C(=O)c2c[nH]c3ncc(-c4ccc(Cl)cc4)cc23)c1F + CN(C)c1ccc(Nc2c3ccc(NC(=O)CCN4CCCC4)cc3nc3cc(NC(=O)CCN4CCCC4)ccc23)cc1
[reply] 22.4

[ask] Any idea what its viability, T/C is? The compound is O=C(c1cc(Cc2n[nH]c(=O)c3ccccc23)ccc1F)N1CCN(C(=O)C2CC2)CC1 + Cc1[nH]c2ccc(F)cc2c1-c1nc2c3cccnc3c3ncccc3c2[nH]1
[reply] 63.3

[ask] Any idea what its viability, T/C is? The compound is CC(C)(O)C1CCC(Nc2ccc3ncc(-c4cccc(C(F)(F)F)c4)n3n2)CC1 (centres undefined) + CN(C)c1ccc(Nc2c3ccc(NC(=O)CCN4CCCC4)cc3nc3cc(NC(=O)CCN4CCCC4)ccc23)cc1
[reply] 64.8

---

System: 817829-284-R-J1-PDC complex spheroids, viability
Assay: Anticancer human tumor 817829-284-R-J1-PDC cell line growth inhibition [GQUAD];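 note: spheroids exposed to agents for 7 days before readout; percent viability relative to DMSO vehicle control taken as 100%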
Details: second compound 10 µM; first compound 0.000999 µM; active compounds read low
Assignment: determine reported viability, T/C for the given compounds.
State the answer as a number, implicitly in %.

[ask] Item Cc1[nH]c2ccccc2c1CCNCc1ccc(/C=C/C(=O)NO)cc1 + CN(C)c1ccc(Nc2c3ccc(NC(=O)CCN4CCCC4)cc3nc3cc(NC(=O)CCN4CCCC4)ccc23)cc1 with 817829-284-R-J1-PDC complex spheroids, viability - viability, T/C?
[reply] 99.2

[ask] Item Cc1[nH]c2ccccc2c1CCNCc1ccc(/C=C/C(=O)NO)cc1 + Cc1[nH]c2ccc(F)cc2c1-c1nc2c3cccnc3c3ncccc3c2[nH]1 with 817829-284-R-J1-PDC complex spheroids, viability - viability, T/C?
[reply] 41.8

[ask] Item CCc1c2c(nc3ccc(O)cc13)-c1cc3c(c(=O)n1C2)COC(=O)[C@]3(O)CC + CN(C)c1ccc(Nc2c3ccc(NC(=O)CCN4CCCC4)cc3nc3cc(NC(=O)CCN4CCCC4)ccc23)cc1 with 817829-284-R-J1-PDC complex spheroids, viability - viability, T/C?
[reply] 60.8

[ask] Item Cn1ncnc1[C@H]1c2n[nH]c(=O)c3cc(F)cc(c23)N[C@@H]1c1ccc(F)cc1 + Cc1[nH]c2ccc(F)cc2c1-c1nc2c3cccnc3c3ncccc3c2[nH]1 with 817829-284-R-J1-PDC complex spheroids, viability - viability, T/C?
[reply] 69.3

[ask] Item Cn1ncnc1[C@H]1c2n[nH]c(=O)c3cc(F)cc(c23)N[C@@H]1c1ccc(F)cc1 + CN(C)c1ccc(Nc2c3ccc(NC(=O)CCN4CCCC4)cc3nc3cc(NC(=O)CCN4CCCC4)ccc23)cc1 with 817829-284-R-J1-PDC complex spheroids, viability - viability, T/C?
[reply] 97.2

[ask] Item Cc1[nH]c2ccccc2c1CCNCc1ccc(/C=C/C(=O)NO)cc1 + Cc1cnc(CNC(=O)c2c(=O)c3ccc(N4CCCN(C)CC4)nc3n3c2sc2ccccc23)cn1 with 817829-284-R-J1-PDC complex spheroids, viability - viability, T/C?
[reply] 0.1
